# pKi per entry for Carbonic anhydrase 6 (Homo sapiens)
A value of pKi is the negative decimal logarithm of a concentration given in moles per litre.

Previously resolved entries follow.
INSERT INTO measurements (compound, endpoint_result) VALUES
  ('Nc1ccc(S(N)(=O)=O)cc1F', 7.02),
  ('CCN[C@H]1CN(CCCOC)S(=O)(=O)c2sc(S(N)(=O)=O)cc21 [BRINZOLAMIDE]', 9.05);

## Task Which measured pKi belongs to `NS(=O)(=O)c1ccc(S(=O)(=O)Nc2cccc3c(Cl)c[nH]c23)cc1` , tested on Carbonic anhydrase 6 (Homo sapiens)?
## Result 7.33

## Task Which measured pKi belongs to `NS(=O)(=O)c1ccc(CCO)cc1` , tested on Carbonic anhydrase 6 (Homo sapiens)?
## Result 5.38

## Task Which measured pKi belongs to `Nc1ccc(S(N)(=O)=O)cc1Cl` , tested on Carbonic anhydrase 6 (Homo sapiens)?
## Result 5.96

## Task Which measured pKi belongs to `Nc1nccc(Nc2ccc(S(N)(=O)=O)cc2)n1` , tested on Carbonic anhydrase 6 (Homo sapiens)?
## Result 7.07
